All values here come from PubChem BioAssay AID1963425.

# Tested on: 323965-272-R-J2-PDC complex spheroid growth, % test/control
# run-description: Anticancer human tumor 323965-272-R-J2-PDC patient-derived pancreatic carcinoma cell line growth inhibition [Asc]
# conditions: second compound 0.3 µM; first compound 0.01 µM; stronger effect = lower value
readout-type: viability, T/C

Here is how some molecules turned out for viability, T/C.
INSERT INTO results (molecule, measured_target, readout_type, val) VALUES
  ('CNC(C)C(=O)NC1CN(S(=O)(=O)c2cccc(S(=O)(=O)N3CCC4CCC(C(=O)NC(c5ccccc5)c5ccccc5)N4C(=O)C(NC(=O)C(C)NC)C3)c2)CCC2CCC(C(=O)NC(c3ccccc3)c3ccccc3)N2C1=O (stereo not drawn) + CCN1C(C(=O)NC23CCC(C(=O)O)(CC2)CC3)C(c2cccc(Cl)c2F)C2(C(=O)Nc3cc(Cl)ccc32)C12CCCCC2', '323965-272-R-J2-PDC complex spheroid growth, % test/control', 'viability, T/C', '113%'),
  ('O=C(c1ccc(F)c(F)c1Nc1ccc(I)cc1F)N1CC(O)([C@@H]2CCCCN2)C1 + CCN1C(C(=O)NC23CCC(C(=O)O)(CC2)CC3)C(c2cccc(Cl)c2F)C2(C(=O)Nc3cc(Cl)ccc32)C12CCCCC2', '323965-272-R-J2-PDC complex spheroid growth, % test/control', 'viability, T/C', '106%');

// moving on: another record for viability, T/C
If you can, please state the reported viability, T/C value of CCN1CCN(Cc2ccc(Nc3ncc(F)c(-c4cc(F)c5nc(C)n(C(C)C)c5c4)n3)nc2)CC1 + CCN1C(C(=O)NC23CCC(C(=O)O)(CC2)CC3)C(c2cccc(Cl)c2F)C2(C(=O)Nc3cc(Cl)ccc32)C12CCCCC2 .
104%

###

# Tested on: 323965-272-R-J2-PDC complex spheroid growth, % test/control
# run-description: Anticancer human tumor 323965-272-R-J2-PDC cell line growth inhibition [Asc];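 further: compound exposure lasted 7 days starting three days after spheroid seeding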
# conditions: curve of first compound; second compound 0.0316 µM
IC50 overview

Here is how some compounds turned out for IC50.
INSERT INTO assay_data (compound, measured_target, val) VALUES
  ('O=C(c1cc(Cc2n[nH]c(=O)c3ccccc23)ccc1F)N1CCN(C(=O)C2CC2)CC1 + Cc1c(S(C)(=O)=O)c(-c2cc(F)cc(N3CCN(c4ccc(NS(=O)(=O)c5ccc(NC(CCN6CCC(C(=O)OCCCP(=O)(O)O)CC6)CSc6ccccc6)c(S(=O)(=O)C(F)(F)F)c5)cc4)CC3)c2)c(-c2ccc(Cl)cc2)n1C(C)C', '323965-272-R-J2-PDC complex spheroid growth, % test/control', '> 10000 nM'),
  ('Cc1nc(N2CCC3(CC2)COC(C)C3N)c(CO)nc1Sc1ccnc(N)c1Cl (stereo not drawn) + Cc1c(S(C)(=O)=O)c(-c2cc(F)cc(N3CCN(c4ccc(NS(=O)(=O)c5ccc(NC(CCN6CCC(C(=O)OCCCP(=O)(O)O)CC6)CSc6ccccc6)c(S(=O)(=O)C(F)(F)F)c5)cc4)CC3)c2)c(-c2ccc(Cl)cc2)n1C(C)C', '323965-272-R-J2-PDC complex spheroid growth, % test/control', '1610 nM');

// moving on: another record for IC50
If you can, please state the reported IC50 value of Cn1ncnc1[C@H]1c2n[nH]c(=O)c3cc(F)cc(c23)N[C@@H]1c1ccc(F)cc1 + CNC(C)C(=O)NC1CN(S(=O)(=O)c2cccc(S(=O)(=O)N3CCC4CCC(C(=O)NC(c5ccccc5)c5ccccc5)N4C(=O)C(NC(=O)C(C)NC)C3)c2)CCC2CCC(C(=O)NC(c3ccccc3)c3ccccc3)N2C1=O .
> 100 nM
